Target: UniProtKB P29322
Sequence (P29322 28-1005): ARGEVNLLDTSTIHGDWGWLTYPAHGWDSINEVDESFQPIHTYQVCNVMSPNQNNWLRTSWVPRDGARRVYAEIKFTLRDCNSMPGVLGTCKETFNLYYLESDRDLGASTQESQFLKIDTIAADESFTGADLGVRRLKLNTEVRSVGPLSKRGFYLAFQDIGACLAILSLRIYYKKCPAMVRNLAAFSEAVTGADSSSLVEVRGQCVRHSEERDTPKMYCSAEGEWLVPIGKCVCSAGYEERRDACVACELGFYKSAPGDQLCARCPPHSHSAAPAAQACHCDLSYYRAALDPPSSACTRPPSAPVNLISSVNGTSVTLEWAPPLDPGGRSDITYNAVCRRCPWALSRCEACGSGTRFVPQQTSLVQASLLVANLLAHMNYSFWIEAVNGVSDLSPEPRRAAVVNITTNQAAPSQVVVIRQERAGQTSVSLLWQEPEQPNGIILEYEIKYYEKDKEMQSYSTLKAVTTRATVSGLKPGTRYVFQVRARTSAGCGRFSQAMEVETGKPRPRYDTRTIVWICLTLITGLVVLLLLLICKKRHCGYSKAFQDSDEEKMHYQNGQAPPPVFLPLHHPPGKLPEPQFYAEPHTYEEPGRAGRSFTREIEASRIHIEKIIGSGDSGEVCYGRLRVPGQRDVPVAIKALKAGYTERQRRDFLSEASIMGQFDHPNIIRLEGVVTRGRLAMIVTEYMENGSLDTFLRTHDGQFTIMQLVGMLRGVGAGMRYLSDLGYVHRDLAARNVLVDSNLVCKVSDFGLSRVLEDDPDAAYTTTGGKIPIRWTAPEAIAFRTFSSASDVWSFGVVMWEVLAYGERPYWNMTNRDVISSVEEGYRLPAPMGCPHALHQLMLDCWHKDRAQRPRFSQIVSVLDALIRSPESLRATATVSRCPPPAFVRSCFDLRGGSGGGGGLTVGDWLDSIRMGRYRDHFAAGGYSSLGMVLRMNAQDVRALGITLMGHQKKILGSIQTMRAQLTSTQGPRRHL
Test: EphA8 Kinase Activity Assay
Assay type: biochemical
Conditions: read-out: EphA8, % INH, at 30 uM
measure name: inhibition at 30 µM

CC(C)(C)c1ccc(CN2CCN(c3nc(N)nc4[nH]ncc34)Cc3ccccc32)cc1 : < 50%
Nc1nc(N2CCN(Cc3cccc(C(F)(F)F)c3)c3ccccc3C2)c2nc[nH]c2n1 : 50 to 79%
CC(C)(C)c1ccc(CN2CCN(c3nc(N)nc4[nH]cnc34)Cc3ccccc32)cc1 : 50 to 79%
Cc1ccc(CN2CCN(c3nc(N)nc4[nH]cnc34)Cc3ccccc32)cc1 : < 50%
Nc1nc(N2CCN(Cc3ccc(Cl)c(Cl)c3)c3ccccc3C2)c2cn[nH]c2n1 : 50 to 79%

---

Entries and their inhibition at 30 µM values follow.
Target: Tec kinase (Homo sapiens, UniProt P42680)
Sequence (P42680 1-631): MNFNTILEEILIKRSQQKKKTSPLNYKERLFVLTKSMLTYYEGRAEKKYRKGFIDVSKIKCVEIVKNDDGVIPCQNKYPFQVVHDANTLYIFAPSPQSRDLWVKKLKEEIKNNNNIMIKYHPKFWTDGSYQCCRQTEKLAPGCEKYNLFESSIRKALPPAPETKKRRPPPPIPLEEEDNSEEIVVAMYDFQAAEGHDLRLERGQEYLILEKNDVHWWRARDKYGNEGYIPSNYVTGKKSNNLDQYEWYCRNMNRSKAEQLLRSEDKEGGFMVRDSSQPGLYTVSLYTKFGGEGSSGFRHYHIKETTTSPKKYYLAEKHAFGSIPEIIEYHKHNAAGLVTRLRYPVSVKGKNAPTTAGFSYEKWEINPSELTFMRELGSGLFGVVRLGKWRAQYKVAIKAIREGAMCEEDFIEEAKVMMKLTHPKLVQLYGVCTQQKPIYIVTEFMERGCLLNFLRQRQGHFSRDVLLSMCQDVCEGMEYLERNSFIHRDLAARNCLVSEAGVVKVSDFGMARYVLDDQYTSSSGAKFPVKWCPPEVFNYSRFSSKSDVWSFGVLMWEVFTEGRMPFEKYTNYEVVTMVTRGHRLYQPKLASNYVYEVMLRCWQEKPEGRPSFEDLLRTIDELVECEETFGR
Experiment: Tec Kinase Activity Assay
Type: biochemical
Details: read-out: Tec % INH, at 30 uM
measure name: inhibition at 30 µM

COc1cc2c(cc1OC)C(c1ccccc1Cl)N(c1nc(N)nc3[nH]cnc13)CC2 (stereo not drawn) : < 50%
Nc1nc(N2CCN(Cc3cccc(C(F)(F)F)c3)c3ccccc3C2)c2nc[nH]c2n1 : 50 to 79%
COc1cc2c(cc1OC)C(CCc1ccccc1)N(c1nc(N)nc3[nH]ncc13)CC2 (stereo not drawn) : < 50%
COc1cccc(CN2CCN(c3nc(N)nc4[nH]ncc34)Cc3ccccc32)c1 : > 79%
Nc1nc(N2CCN(Cc3ccc(F)cc3F)c3ccccc3C2)c2nc[nH]c2n1 : 50 to 79%
CC(C)c1ccc(CN2CCN(c3nc(N)nc4[nH]ncc34)Cc3ccccc32)cc1 : 50 to 79%

---

Reported inhibition at 30 µM values for a set of molecules
biological target: RET kinase (Homo sapiens); experiment: RET Kinase Activity Assay; type: biochemical; conditions: read-out: Ret, % INH, at 30 uM
Sequence (P07949 29-1114): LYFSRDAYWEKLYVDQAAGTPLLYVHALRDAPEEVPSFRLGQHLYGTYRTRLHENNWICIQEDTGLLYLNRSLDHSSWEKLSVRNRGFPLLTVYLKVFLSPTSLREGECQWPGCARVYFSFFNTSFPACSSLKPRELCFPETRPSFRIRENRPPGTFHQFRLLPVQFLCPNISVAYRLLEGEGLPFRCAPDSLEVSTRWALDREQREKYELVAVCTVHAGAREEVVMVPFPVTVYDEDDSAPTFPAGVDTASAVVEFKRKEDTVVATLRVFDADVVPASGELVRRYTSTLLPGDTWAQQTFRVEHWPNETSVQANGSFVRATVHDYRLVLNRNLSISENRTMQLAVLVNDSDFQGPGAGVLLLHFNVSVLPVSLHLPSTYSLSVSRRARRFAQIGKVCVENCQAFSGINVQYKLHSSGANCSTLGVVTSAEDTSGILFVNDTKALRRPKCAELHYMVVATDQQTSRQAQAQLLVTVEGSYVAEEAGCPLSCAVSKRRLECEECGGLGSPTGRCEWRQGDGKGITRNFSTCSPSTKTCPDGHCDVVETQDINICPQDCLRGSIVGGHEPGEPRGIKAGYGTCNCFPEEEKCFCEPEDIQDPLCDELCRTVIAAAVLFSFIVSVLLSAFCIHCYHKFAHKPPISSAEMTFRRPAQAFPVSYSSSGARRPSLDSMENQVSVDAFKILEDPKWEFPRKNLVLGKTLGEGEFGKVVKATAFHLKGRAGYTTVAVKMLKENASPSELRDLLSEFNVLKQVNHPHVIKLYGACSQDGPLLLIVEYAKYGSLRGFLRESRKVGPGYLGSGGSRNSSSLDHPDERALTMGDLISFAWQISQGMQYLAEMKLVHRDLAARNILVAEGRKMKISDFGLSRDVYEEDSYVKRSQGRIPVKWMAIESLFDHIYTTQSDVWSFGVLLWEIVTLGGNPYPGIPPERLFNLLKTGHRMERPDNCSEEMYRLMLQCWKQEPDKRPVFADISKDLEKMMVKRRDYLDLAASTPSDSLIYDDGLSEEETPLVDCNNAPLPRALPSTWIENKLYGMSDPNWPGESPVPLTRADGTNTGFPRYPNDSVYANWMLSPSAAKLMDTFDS
measure name: inhibition at 30 µM

Nc1nc(N2CCN(Cc3ccc(F)c(F)c3)c3ccccc3C2)c2nc[nH]c2n1 : 50 to 79%
COc1cc2c(cc1OC)C(c1cccc(C(F)(F)F)c1)N(c1nc(N)nc3[nH]cnc13)CC2 (centres unmarked) : < 50%
Nc1nc(N2CCN(Cc3ccccc3Cl)c3ccccc3C2)c2cn[nH]c2n1 : < 50%
Nc1nc(N2CCN(Cc3cccc(Cl)c3)c3ccccc3C2)c2nc[nH]c2n1 : 50 to 79%
Nc1nc(N2CCN(Cc3cccc(C(F)(F)F)c3)c3ccccc3C2)c2nc[nH]c2n1 : < 50%
Nc1nc(N2CCN(Cc3ccc(Cl)c(Cl)c3)c3ccccc3C2)c2cn[nH]c2n1 : 50 to 79%
Nc1nc(N2CCN(CCCc3cccc(F)c3)c3ccccc3C2)c2nc[nH]c2n1 : 50 to 79%
Nc1nc(N2CCN(Cc3ccc(F)cc3F)c3ccccc3C2)c2nc[nH]c2n1 : 50 to 79%
Cc1cccc(CN2CCN(c3nc(N)nc4[nH]ncc34)Cc3ccccc32)c1 : < 50%
Nc1nc(N2CCN(Cc3ccc(Cl)cc3Cl)c3ccccc3C2)c2cn[nH]c2n1 : < 50%
Cc1ccc(CCCN2CCN(c3nc(N)nc4[nH]cnc34)Cc3ccccc32)cc1 : < 50%
Nc1nc(N2CCN(Cc3ccc(F)cc3F)c3ccccc3C2)c2cn[nH]c2n1 : < 50%
Cc1ccc(CCCN2CCN(c3nc(N)nc4[nH]ncc34)Cc3ccccc32)cc1 : 50 to 79%
CC(C)c1ccc(CN2CCN(c3nc(N)nc4[nH]cnc34)Cc3ccccc32)cc1 : < 50%

---

Molecular target: Tec kinase (Homo sapiens)
Sequence (P42680 1-631): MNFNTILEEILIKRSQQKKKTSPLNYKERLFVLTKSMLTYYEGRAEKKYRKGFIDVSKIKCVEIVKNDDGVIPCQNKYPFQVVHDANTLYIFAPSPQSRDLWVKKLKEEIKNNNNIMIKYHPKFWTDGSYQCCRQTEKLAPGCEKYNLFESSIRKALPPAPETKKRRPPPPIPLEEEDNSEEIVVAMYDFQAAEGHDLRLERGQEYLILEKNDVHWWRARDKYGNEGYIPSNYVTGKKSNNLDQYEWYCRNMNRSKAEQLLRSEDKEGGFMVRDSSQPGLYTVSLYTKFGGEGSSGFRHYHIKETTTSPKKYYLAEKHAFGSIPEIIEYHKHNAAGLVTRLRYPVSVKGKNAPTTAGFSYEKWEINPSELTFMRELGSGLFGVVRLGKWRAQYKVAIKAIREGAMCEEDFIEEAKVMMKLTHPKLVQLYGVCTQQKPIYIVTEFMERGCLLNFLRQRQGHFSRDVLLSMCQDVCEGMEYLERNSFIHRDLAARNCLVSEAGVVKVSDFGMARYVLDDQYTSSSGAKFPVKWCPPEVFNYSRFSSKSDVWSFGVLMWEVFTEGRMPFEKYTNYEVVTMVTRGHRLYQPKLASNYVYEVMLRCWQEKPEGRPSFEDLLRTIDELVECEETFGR
Experiment: Tec Kinase Activity Assay
Format: biochemical
Conditions: read-out: Tec % INH, at 30 uM
Some compounds, each annotated with its measured inhibition at 30 µM.
measure name: inhibition at 30 µM

Nc1nc(N2CCN(Cc3ccccc3Cl)c3ccccc3C2)c2nc[nH]c2n1 : < 50%
Nc1nc(N2CCN(Cc3ccc(F)c(F)c3)c3ccccc3C2)c2nc[nH]c2n1 : < 50%
COc1ccccc1CN1CCN(c2nc(N)nc3[nH]ncc23)Cc2ccccc21 : > 79%
COc1cccc(CN2CCN(c3nc(N)nc4[nH]cnc34)Cc3ccccc32)c1 : 50 to 79%
Cc1cccc(CN2CCN(c3nc(N)nc4[nH]ncc34)Cc3ccccc32)c1 : 50 to 79%
Nc1nc(N2CCN(CCCc3cccc(Cl)c3)c3ccccc3C2)c2nc[nH]c2n1 : 50 to 79%
Nc1nc(N2CCN(Cc3ccc(Cl)c(Cl)c3)c3ccccc3C2)c2cn[nH]c2n1 : > 79%
Nc1nc(N2CCN(Cc3cccc(F)c3)c3ccccc3C2)c2cn[nH]c2n1 : 50 to 79%
Cc1ccc(CCCN2CCN(c3nc(N)nc4[nH]ncc34)Cc3ccccc32)cc1 : > 79%

The values you see were collected from patent US8343961B2.
